Values from patent US20160326228A1

Target: T1, Activin A (UniProt P08476 311-426)
T1 construct: also called ActA
T1 sequence (looked up): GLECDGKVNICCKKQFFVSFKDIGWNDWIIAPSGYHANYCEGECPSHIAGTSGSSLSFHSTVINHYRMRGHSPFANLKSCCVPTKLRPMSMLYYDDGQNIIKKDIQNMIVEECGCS
Assay: BiaCore; receptor-Fc captured by anti-hFc antibody, ligand injected

| Binder | koff |
| --- | --- |
| ActRIIB(R64K 20-134)-hFc (Fc fusion, not shown: linker (if any) and human Fc (hFc)) GRGEAETRECIYYNANWELERTNQSGLERCEGEQDKRLHCYASWKNSSGTIELVKKGCWLDDFNCYDRQECVATEENPQVYFCCCEGNFCNERFTHLPEAGGPEVTYEPPPTAPT | 0.000325 s⁻¹ |
| ActRIIB(20-134)-hFc (Fc fusion, not shown: linker (if any) and human Fc (hFc)) GRGEAETRECIYYNANWELERTNQSGLERCEGEQDKRLHCYASWRNSSGTIELVKKGCWLDDFNCYDRQECVATEENPQVYFCCCEGNFCNERFTHLPEAGGPEVTYEPPPTAPT | 0.000159 s⁻¹ |
| ActRIIB(R64K 20-129)-hFc (Fc fusion, not shown: linker (if any) and human Fc (hFc)) GRGEAETRECIYYNANWELERTNQSGLERCEGEQDKRLHCYASWKNSSGTIELVKKGCWLDDFNCYDRQECVATEENPQVYFCCCEGNFCNERFTHLPEAGGPEVTYEPP | 0.000628 s⁻¹ |
| ActRIIB(P129S, P130R 20-134)-hFc (Fc fusion, T0017 prints a P129S P130A variant; kept as a separate molecule; not shown: linker (if any) and human Fc (hFc)) GRGEAETRECIYYNANWELERTNQSGLERCEGEQDKRLHCYASWRNSSGTIELVKKGCWLDDFNCYDRQECVATEENPQVYFCCCEGNFCNERFTHLPEAGGPEVTYEPSRTAPT | 0.000417 s⁻¹ |
| ActRIIB(A24N 20-134)-hFc (Fc fusion, also called A24N variant; not shown: linker (if any) and human Fc (hFc)) GRGENETRECIYYNANWELERTNQSGLERCEGEQDKRLHCYASWRNSSGTIELVKKGCWLDDFNCYDRQECVATEENPQVYFCCCEGNFCNERFTHLPEAGGPEVTYEPPPTAPT | 0.000346 s⁻¹ |
